System: Calu-3
Measurement Notes: drug sensitivity score (DSS) for viability; higher = more toxic; extreme values may be limits of the assay
Settings: 72 h
Record form. Attribute: drug sensitivity score. Fill in for each entry.
// return just the number, without any unit appended

Query string: Answer with the recorded drug sensitivity score of CCOC(=O)c1ccc(N)cc1 [benzocaine] only.
Result string: 0

Query string: Answer with the recorded drug sensitivity score of NS(=O)(=O)c1cc(C2(O)NC(=O)c3ccccc32)ccc1Cl (configuration not stated) [chlorthalidone] only.
Result string: 0

Query string: Answer with the recorded drug sensitivity score of COc1cccc(-c2cc(=O)c3ccccc3o2)c1N only.
Result string: 0.2

Query string: Answer with the recorded drug sensitivity score of [O-][n+]1cccc(CO)c1 [mepiroxol] only.
Result string: 0

Query string: Answer with the recorded drug sensitivity score of CN1CCC(=C2c3ccccc3CC(=O)c3sccc32)CC1 [ketotifen] only.
Result string: 0

Query string: Answer with the recorded drug sensitivity score of O=C(O)C[C@H]1CC[C@H](c2ccc(-c3ccc(Nc4ccc(C(F)(F)F)nc4)cn3)cc2)CC1 [LCQ908] only.
Result string: 0

Query string: Answer with the recorded drug sensitivity score of Cc1nc2ccc(NC(=O)Nc3ccnc4cccnc34)cc2o1 only.
Result string: 0

Query string: Answer with the recorded drug sensitivity score of CN(C)N(C)C(=O)[C@@]1(Cc2ccccc2)CCCN(C(=O)[C@@H](Cc2c[nH]c3ccccc23)NC(=O)C(C)(C)N)C1 [anamorelin] only.
Result string: 0

Query string: Answer with the recorded drug sensitivity score of COc1cccc(-n2nc(C(=O)O)cc2-c2ccc(C3CCCCC3)c(Cl)c2)c1 [TC-LPA5-4] only.
Result string: 0

Query string: Answer with the recorded drug sensitivity score of Cc1cccc(C)c1NC(=O)CN1CCN(CCCC(c2ccc(F)cc2)c2ccc(F)cc2)CC1 [lidoflazine] only.
Result string: 0

Query string: Answer with the recorded drug sensitivity score of O=C(c1ccc(F)c(F)c1Nc1ccc(I)cc1F)N1CC(O)([C@@H]2CCCCN2)C1 [cobimetinib] only.
Result string: 11.9

Query string: Answer with the recorded drug sensitivity score of N#Cc1cc(CN2CCC(Nc3ncnc4sc(Cl)cc34)CC2)ccc1F only.
Result string: 0.2

Data origin, for the record: the supplement of paper PMC13380429
